# testedOn: 5HT-uptake (Rattus norvegicus, UniProt P31652)
# Construct: synaptosomes were freshly isolated from areas of rats' brains
# Sequence (P31652 whole entry): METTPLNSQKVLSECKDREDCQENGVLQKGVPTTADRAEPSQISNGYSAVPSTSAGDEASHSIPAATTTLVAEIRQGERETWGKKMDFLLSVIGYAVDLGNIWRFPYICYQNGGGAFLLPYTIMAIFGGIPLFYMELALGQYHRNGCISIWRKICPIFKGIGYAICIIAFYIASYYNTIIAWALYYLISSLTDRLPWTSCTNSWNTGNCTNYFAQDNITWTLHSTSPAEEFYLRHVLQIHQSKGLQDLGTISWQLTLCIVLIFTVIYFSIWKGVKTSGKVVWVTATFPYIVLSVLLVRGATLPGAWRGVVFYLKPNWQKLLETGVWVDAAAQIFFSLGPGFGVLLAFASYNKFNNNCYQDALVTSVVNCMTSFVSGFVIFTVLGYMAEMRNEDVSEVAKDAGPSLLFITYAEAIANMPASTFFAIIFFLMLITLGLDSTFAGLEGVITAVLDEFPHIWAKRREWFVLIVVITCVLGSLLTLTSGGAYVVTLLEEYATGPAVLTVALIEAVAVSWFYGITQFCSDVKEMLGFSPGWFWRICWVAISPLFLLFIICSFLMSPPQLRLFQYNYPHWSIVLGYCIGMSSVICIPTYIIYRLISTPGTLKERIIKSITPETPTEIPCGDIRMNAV
# test: biochemical
# details: read-out: 5HT-uptake [10 μM], % inhibition
Record form. Attribute: inhibition at 10 µM. Fill in for each entry.
Number only, in %; omit the unit.

Entry CN(C)C1(Cc2ccc(Cl)cc2)CCC(NC(=O)CCC(=O)N2CCC3(CC2)OCCO3)CC1 (stereo not shown) [Example 65] — recorded inhibition at 10 µM = 92

Entry CN(C)C1(Cc2cccc(Cl)c2)CCC(NC(=O)CCC(=O)NCCc2ccccn2)CC1 (stereo not shown) [Example 12] — recorded inhibition at 10 µM = 92

Entry Cc1ccccc1CNC(=O)CCC(=O)NC1CCC(Cc2ccc(Cl)cc2)(N(C)C)CC1 (stereo not shown) [Example 50] — recorded inhibition at 10 µM = 92

Entry CN(C)C1(Cc2cccc(Cl)c2)CCC(NC(=O)CCC(=O)NCc2ccccn2)CC1 (stereo not shown) [Example 73] — recorded inhibition at 10 µM = 93

Entry Cc1ccc(CC2(N(C)C)CCC(NC(=O)CCC(=O)N(C)CCc3c[nH]c4ccccc34)CC2)cc1 (stereo not shown) [Example 36] — recorded inhibition at 10 µM = 96

Entry COc1ccc(F)c(CN2CCN(C(=O)CCCC(=O)NC3CCC(Cc4ccccc4)(N(C)C)CC3)CC2)c1 (stereo not shown) [Example 25] — recorded inhibition at 10 µM = 97

Entry COC(=O)C(Cc1ccc(Cl)cc1)NC(=O)CCC(=O)NC1CCC(Cc2ccc(C)cc2)(N(C)C)CC1 (stereo not shown) [Example 32] — recorded inhibition at 10 µM = 99

Entry CC(=O)c1ccc(N2CCN(C(=O)CCC(=O)NC3CCC(Cc4ccc(C)cc4)(N(C)C)CC3)CC2)cc1 (stereo not shown) [Example 27] — recorded inhibition at 10 µM = 95

Entry COCCCNC(=O)CCC(=O)NC1CCC(Cc2ccc(Cl)cc2)(N(C)C)CC1 (stereo not shown) [Example 26] — recorded inhibition at 10 µM = 93

Entry Cc1ccc(CC2(N(C)C)CCC(NC(=O)CCC(=O)NC3CCN(Cc4c(Cl)cccc4Cl)C3)CC2)cc1 (stereo not shown) [Example 1] — recorded inhibition at 10 µM = 93

Entry C=CCOc1ccc(CN2CCN(C(=O)CCC(=O)NC3CCC(Cc4cccc(C)c4)(N(C)C)CC3)CC2)cc1 (stereo not shown) [Example 89] — recorded inhibition at 10 µM = 94

Entry CC(CCc1ccccc1)NC(=O)CCC(=O)NC1CCC(Cc2ccc(Cl)cc2)(N(C)C)CC1 (stereo not shown) [Example 83] — recorded inhibition at 10 µM = 93

Entry COc1ccc2[nH]cc(CCNC(=O)CCC(=O)NC3CCC(Cc4cccc(C)c4)(N(C)C)CC3)c2c1 (stereo not shown) [Example 139] — recorded inhibition at 10 µM = 93

Entry COc1ccc(CNC(=O)CCC(=O)NC2CCC(Cc3cccc(C)c3)(N(C)C)CC2)cc1 (stereo not shown) [Example 85] — recorded inhibition at 10 µM = 94

Entry CCC(NC(=O)CCC(=O)NC1CCC(Cc2ccc(Cl)cc2)(N(C)C)CC1)c1ccccc1 (stereo not shown) [Example 135] — recorded inhibition at 10 µM = 92

Entry CCOc1ccccc1CNC(=O)CCC(=O)NC1CCC(Cc2ccc(C)cc2)(N(C)C)CC1 (stereo not shown) [Example 138] — recorded inhibition at 10 µM = 92

Entry CCC(C)C(NC(=O)CCC(=O)NC1CCC(Cc2cccc(C)c2)(N(C)C)CC1)C(=O)OC(C)(C)C (stereo not shown) [Example 102] — recorded inhibition at 10 µM = 94

Entry Cc1cccc(CC2(N(C)C)CCC(NC(=O)CCC(=O)N3CCN(C(=O)c4cccc(Cl)c4)CC3)CC2)c1 (stereo not shown) [Example 107] — recorded inhibition at 10 µM = 95

Entry CCOc1ccc(N2CCN(C(=O)CCC(=O)NC3CCC(Cc4ccc(Cl)cc4)(N(C)C)CC3)CC2)cc1 (stereo not shown) [Example 16] — recorded inhibition at 10 µM = 97

Entry Cc1ccc(CC2(N(C)C)CCC(NC(=O)CCC(=O)NC(C)C(=O)OC(C)(C)C)CC2)cc1 (stereo not shown) [Example 61] — recorded inhibition at 10 µM = 92

Entry CN(C)C1(Cc2ccc(Cl)cc2)CCC(NC(=O)CCC(=O)NCc2cc(F)cc(F)c2)CC1 (stereo not shown) [Example 49] — recorded inhibition at 10 µM = 92

Entry CCOC(=O)N1CCN(C(=O)CCC(=O)NC2CCC(Cc3cccc(Cl)c3)(N(C)C)CC2)CC1 (stereo not shown) [Example 84] — recorded inhibition at 10 µM = 95

Entry CN(C)C1(Cc2cccc(Cl)c2)CCC(NC(=O)CCC(=O)N2CCc3[nH]c4ccc(F)cc4c3C2)CC1 (stereo not shown) [Example 8] — recorded inhibition at 10 µM = 92

Entry CCOP(=O)(Cc1ccc(NC(=O)CCC(=O)NC2CCC(Cc3cccc(Cl)c3)(N(C)C)CC2)cc1)OCC (stereo not shown) [Example 37] — recorded inhibition at 10 µM = 95

Entry CCC(C)c1ccc(NC(=O)CCC(=O)NC2CCC(Cc3ccc(Cl)cc3)(N(C)C)CC2)cc1 (stereo not shown) [Example 140] — recorded inhibition at 10 µM = 93

Entry CN(C)C1(Cc2ccc(Cl)cc2)CCC(NC(=O)CCC(=O)N2CC=CCC2)CC1 (stereo not shown) [Example 5] — recorded inhibition at 10 µM = 93

Entry CCOC(=O)C(C)NC(=O)CCC(=O)NC1CCC(Cc2ccc(Cl)cc2)(N(C)C)CC1 (stereo not shown) [Example 7] — recorded inhibition at 10 µM = 93

Entry CN(C)C1(Cc2ccc(Cl)cc2)CCC(NC(=O)CCC(=O)NC2CCN(Cc3ccc(C(F)(F)F)cc3)C2)CC1 (stereo not shown) [Example 98] — recorded inhibition at 10 µM = 92

Entry Cc1cccc(CC2(N(C)C)CCC(NC(=O)CCC(=O)N3CCC(Cc4ccccc4)CC3)CC2)c1 (stereo not shown) [Example 103] — recorded inhibition at 10 µM = 94

Entry CN(CC(=O)OC(C)(C)C)C(=O)CCCC(=O)NC1CCC(Cc2ccccc2)(N(C)C)CC1 (stereo not shown) [Example 24] — recorded inhibition at 10 µM = 92

Entry Cc1ccc(CC2(N(C)C)CCC(NC(=O)CCC(=O)N(C)CCc3ccccn3)CC2)cc1 (stereo not shown) [Example 38] — recorded inhibition at 10 µM = 95
